Molecular target: phosphorylation levels of ERK1/2 in AsPC-1 (homozygous KRAS-G12D) cells (Homo sapiens, UniProt P01116, G12D)
Sequence (P01116 1-186 G12D): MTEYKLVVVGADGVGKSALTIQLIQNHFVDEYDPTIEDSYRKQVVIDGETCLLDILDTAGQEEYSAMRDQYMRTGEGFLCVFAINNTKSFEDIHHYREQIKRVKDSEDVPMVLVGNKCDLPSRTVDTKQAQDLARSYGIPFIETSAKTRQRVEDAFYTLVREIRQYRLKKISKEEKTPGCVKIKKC
Test: Cellular phospho-ERK assay in AsPC-1 cells (Alpha Screen), assay medium without fetal bovine serum
Settings: phospho-ERK AlphaScreen, 18 h
*1 amine or outer side, *2 acyl side, *3 side chain or, on linkers, in order; H or OH if unused. Where a SMILES comes first, the peptide text is derived from it. [ ]: non-standard residue; d: D form. Ala(pyrimidin-5-yl) = N[C@@H](Cc1cncnc1)C(=O)O; X5 = O=C([C@H](Cc1c(F)ccnc1F)N[*:1])[*:2]; X1 = O=C(C12CC(CN[*:1])(C1)C2)[*:2]; Ala(cPr) = N[C@@H](CC1CC1)C(=O)O; NMeF = CN[C@@H](Cc1ccccc1)C(=O)O; PhLac = O=C(O)[C@@H](O)Cc1ccccc1; hLeu = CC(C)CC[C@H](N)C(=O)O; NMeA = CN[C@@H](C)C(=O)O
Outcome Measure: pEC50
Just so you know, pEC50 here is -log10 of the concentration in molar units; reply with that number alone.

Query :: Entry under review: CC(C)CC[C@@H]1NC(=O)[C@H](Cc2c(F)ccnc2F)NC(=O)[C@H](CC2CC2)NC(=O)[C@H](Cc2cncnc2)NC(=O)[C@H](C)N(C)C(=O)[C@H](Cc2ccccc2)OC(=O)C23CC(CNC(=O)[C@H](Cc4ccccc4)N(C)C1=O)(C2)C3 [compound 295] (cyclo([Ala(cPr)][X5][hLeu][NMeF][X1][PhLac][NMeA][Ala(pyrimidin-5-yl)])) . Reported pEC50?
Result :: 4.53

---

Biological target: phosphorylation levels of ERK1/2 in AsPC-1 (homozygous KRAS-G12D) cells (Homo sapiens, UniProt P01116, G12D)
Experiment: Cellular phospho-ERK assay in AsPC-1 cells (Alpha Screen), assay medium without fetal bovine serum
Settings: phospho-ERK AlphaScreen, 18 h
*1 amine or outer side, *2 acyl side, *3 side chain or, on linkers, in order; H or OH if unused. Where a SMILES comes first, the peptide text is derived from it. [ ]: non-standard residue; d: D form. Ala(pyrimidin-5-yl) = N[C@@H](Cc1cncnc1)C(=O)O; NMe3Pal(5-F) = CN[C@@H](Cc1cncc(F)c1)C(=O)O; Phe(2-F) = N[C@@H](Cc1ccccc1F)C(=O)O; X1 = O=C(C12CC(CN[*:1])(C1)C2)[*:2]; Ala(cPr) = N[C@@H](CC1CC1)C(=O)O; PhLac = O=C(O)[C@@H](O)Cc1ccccc1; hLeu = CC(C)CC[C@H](N)C(=O)O; NMeA = CN[C@@H](C)C(=O)O
Outcome Measure: EC50 (µM)
Please reply with the bare figure in µM and do not write the unit itself.

Query :: Entry under review: CC(C)CC[C@@H]1NC(=O)[C@H](Cc2ccccc2F)NC(=O)[C@H](CC2CC2)NC(=O)[C@H](Cc2cncnc2)NC(=O)[C@H](C)N(C)C(=O)[C@H](Cc2ccccc2)OC(=O)C23CC(CNC(=O)[C@H](Cc4cncc(F)c4)N(C)C1=O)(C2)C3 [compound 282] (cyclo([Ala(cPr)][Phe(2-F)][hLeu][NMe3Pal(5-F)][X1][PhLac][NMeA][Ala(pyrimidin-5-yl)])) . Reported EC50?
Result :: 2.49

---

Form field: pEC50 (one value per entry).
Target: phosphorylation levels of ERK1/2 in AsPC-1 (homozygous KRAS-G12D) cells (Homo sapiens, UniProt P01116, G12D)
Assay: Cellular phospho-ERK assay in AsPC-1 cells (Alpha Screen), assay medium without fetal bovine serum
Settings: phospho-ERK AlphaScreen, 18 h
*1 amine or outer side, *2 acyl side, *3 side chain or, on linkers, in order; H or OH if unused. Where a SMILES comes first, the peptide text is derived from it. [ ]: non-standard residue; d: D form. Ala(pyrimidin-5-yl) = N[C@@H](Cc1cncnc1)C(=O)O; X6 = O=C([C@H](Cc1cnn(C2COC2)c1)N[*:1])[*:2]; X11 = CC(C)(F)CC[C@H](N[*:1])C(=O)[*:2]; Phe(2-F) = N[C@@H](Cc1ccccc1F)C(=O)O; NMe3Pal = CN[C@@H](Cc1cccnc1)C(=O)O; X1 = O=C(C12CC(CN[*:1])(C1)C2)[*:2]; Ala(cPr) = N[C@@H](CC1CC1)C(=O)O; NMeF = CN[C@@H](Cc1ccccc1)C(=O)O; PhLac = O=C(O)[C@@H](O)Cc1ccccc1; hLeu = CC(C)CC[C@H](N)C(=O)O; NMeA = CN[C@@H](C)C(=O)O
Just so you know, pEC50 here is -log10 of the concentration in molar units; reply with that number alone.

C[C@H]1C(=O)N[C@@H](Cc2cncnc2)C(=O)N[C@@H](CC2CC2)C(=O)N[C@@H](Cc2ccccc2F)C(=O)N[C@@H](CCC(C)(C)F)C(=O)N(C)[C@@H](Cc2ccccc2)C(=O)NCC23CC(C2)(C3)C(=O)O[C@@H](Cc2ccccc2)C(=O)N1C [compound 277] (cyclo([Ala(cPr)][Phe(2-F)][X11][NMeF][X1][PhLac][NMeA][Ala(pyrimidin-5-yl)])) ... 6.10

--- query ---
Query :: Entry under review: CC(C)CC[C@@H]1NC(=O)[C@H](Cc2ccccc2F)NC(=O)[C@H](CC2CC2)NC(=O)[C@H](Cc2cnn(C3COC3)c2)NC(=O)[C@H](C)N(C)C(=O)[C@H](Cc2ccccc2)OC(=O)C23CC(CNC(=O)[C@H](Cc4cccnc4)N(C)C1=O)(C2)C3 [compound 301] (cyclo([Ala(cPr)][Phe(2-F)][hLeu][NMe3Pal][X1][PhLac][NMeA][X6])) . Reported pEC50?
Result :: 4.40

---

Form field: pEC50 (one value per entry).
Biological target: phosphorylation levels of ERK1/2 in AsPC-1 (homozygous KRAS-G12D) cells (Homo sapiens, UniProt P01116, G12D)
Test: Cellular phospho-ERK assay in AsPC-1 cells (Alpha Screen), assay medium without fetal bovine serum
Settings: phospho-ERK AlphaScreen, 18 h
*1 amine or outer side, *2 acyl side, *3 side chain or, on linkers, in order; H or OH if unused. Where a SMILES comes first, the peptide text is derived from it. [ ]: non-standard residue; d: D form. Ala(pyrimidin-5-yl) = N[C@@H](Cc1cncnc1)C(=O)O; X37 = O=C([C@H](Cc1cnc(F)cc1F)N[*:1])[*:2]; X25 = O=C([C@H](Cc1ccc(F)nc1)N[*:1])[*:2]; Phe(2-F) = N[C@@H](Cc1ccccc1F)C(=O)O; X1 = O=C(C12CC(CN[*:1])(C1)C2)[*:2]; Ala(cPr) = N[C@@H](CC1CC1)C(=O)O; NMeF = CN[C@@H](Cc1ccccc1)C(=O)O; PhLac = O=C(O)[C@@H](O)Cc1ccccc1; hLeu = CC(C)CC[C@H](N)C(=O)O; NMeA = CN[C@@H](C)C(=O)O; Nle = CCCC[C@H](N)C(=O)O
Just so you know, pEC50 here is -log10 of the concentration in molar units; reply with that number alone.

CC(C)CC[C@@H]1NC(=O)[C@H](Cc2cnc(F)cc2F)NC(=O)[C@H](CC2CC2)NC(=O)[C@H](Cc2cncnc2)NC(=O)[C@H](C)N(C)C(=O)[C@H](Cc2ccccc2)OC(=O)C23CC(CNC(=O)[C@H](Cc4ccccc4)N(C)C1=O)(C2)C3 [compound 294] (cyclo([Ala(cPr)][X37][hLeu][NMeF][X1][PhLac][NMeA][Ala(pyrimidin-5-yl)])) ... 5.33

--- query ---
Query :: Entry under review: CCCC[C@@H]1NC(=O)[C@H](Cc2ccc(F)nc2)NC(=O)[C@H](C)N(C)C(=O)[C@H](Cc2ccccc2)OC(=O)C23CC(CNC(=O)[C@H](Cc4ccccc4)N(C)C(=O)[C@H](CCCC)NC(=O)[C@H](Cc4ccccc4F)NC1=O)(C2)C3 [compound 231] (cyclo([NMeA][X25][Nle][Phe(2-F)][Nle][NMeF][X1][PhLac])) . Reported pEC50?
Result :: 6.23

---

Biological target: phosphorylation levels of ERK1/2 in AsPC-1 (homozygous KRAS-G12D) cells (Homo sapiens, UniProt P01116, G12D)
Assay: Cellular phospho-ERK assay in AsPC-1 cells (Alpha Screen), assay medium without fetal bovine serum;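 note: signal taken as phospho-ERK over total ERK per well, both detected in one multiplex bead assay, EC50 from four-parameter logistic fit of dose-response curves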
Settings: phospho-ERK AlphaScreen, 18 h
*1 amine or outer side, *2 acyl side, *3 side chain or, on linkers, in order; H or OH if unused. Where a SMILES comes first, the peptide text is derived from it. Bridges are numbered along the chain shown (N, C = ends). [ ]: non-standard residue; d: D form. Phe(4-guanidino) = N=C(N)Nc1ccc(C[C@H](N)C(=O)O)cc1; Ala(pyrimidin-5-yl) = N[C@@H](Cc1cncnc1)C(=O)O; NMePhe(3-Me) = CN[C@@H](Cc1cccc(C)c1)C(=O)O; NMePhe(3-F) = CN[C@@H](Cc1cccc(F)c1)C(=O)O; Nle(5,5-F2) = CC(F)(F)CC[C@H](N)C(=O)O; X35 = CN([C@@H](CCCF)C(=O)[*:2])[*:1]; Ala(cPent) = N[C@@H](CC1CCCC1)C(=O)O; Phe(2-F) = N[C@@H](Cc1ccccc1F)C(=O)O; NMe3Pal = CN[C@@H](Cc1cccnc1)C(=O)O; X1 = O=C(C12CC(CN[*:1])(C1)C2)[*:2]; X17 = O=C([C@H](CCCCF)N[*:1])[*:2]; Ala(cPr) = N[C@@H](CC1CC1)C(=O)O; NMeF = CN[C@@H](Cc1ccccc1)C(=O)O; PhLac = O=C(O)[C@@H](O)Cc1ccccc1; 3Pal = N[C@@H](Cc1cccnc1)C(=O)O; Ahp(2) = CCCCC[C@H](N)C(=O)O; hLeu = CC(C)CC[C@H](N)C(=O)O; αMeC = C[C@](N)(CS)C(=O)O; NMeA = CN[C@@H](C)C(=O)O; Nle = CCCC[C@H](N)C(=O)O
Form field: pEC50 (one value per entry).
Just so you know, pEC50 here is -log10 of the concentration in molar units; reply with that number alone.

// solved cases for pEC50 follow
CCCCC[C@@H]1NC(=O)[C@H](Cc2ccc(OC)cc2)NC(=O)[C@H](CC2CCCC2)NC(=O)[C@H](Cc2ccc(NC(=N)N)cc2)NC(=O)[C@H](CCCNC(=N)N)NC(=O)[C@H](Cc2ccccc2)NC(=O)CSC[C@@](C)(C(N)=O)NC(=O)[C@H](Cc2ccccc2)N(C)C1=O [compound 366] ({CH2CO}-FR[Phe(4-guanidino)][Ala(cPent)]Y(Me)[Ahp(2)][NMeF][αMeC]-NH2; thioether N-8) ... 4.91
CCCC[C@@H]1NC(=O)[C@H](Cc2cncnc2)NC(=O)[C@H](C)N(C)C(=O)[C@H](Cc2ccccc2)OC(=O)C23CC(CNC(=O)[C@H](Cc4cccc(C)c4)N(C)C(=O)[C@H](CCCC)NC(=O)[C@H](Cc4ccccc4F)NC1=O)(C2)C3 [compound 172] (cyclo([NMeA][Ala(pyrimidin-5-yl)][Nle][Phe(2-F)][Nle][NMePhe(3-Me)][X1][PhLac])) ... 6.59

Query :: Entry under review: CCCC[C@@H]1NC(=O)[C@H](Cc2cncnc2)NC(=O)[C@H](C)N(C)C(=O)[C@H](Cc2ccccc2)OC(=O)C23CC(CNC(=O)[C@H](Cc4ccccc4)N(C)C(=O)[C@H](CCCCF)NC(=O)[C@H](Cc4ccccc4F)NC1=O)(C2)C3 [compound 131] (cyclo([NMeA][Ala(pyrimidin-5-yl)][Nle][Phe(2-F)][X17][NMeF][X1][PhLac])) . Reported pEC50?
Result :: 5.63

Query :: Entry under review: CCCC[C@@H]1NC(=O)[C@H](Cc2cncnc2)NC(=O)[C@H](C)N(C)C(=O)[C@H](Cc2ccccc2)OC(=O)C23CC(CNC(=O)[C@H](Cc4ccccc4)N(C)C(=O)[C@H](CCC(C)C)NC(=O)[C@H](Cc4ccccc4F)NC1=O)(C2)C3 [compound 132] (cyclo([NMeA][Ala(pyrimidin-5-yl)][Nle][Phe(2-F)][hLeu][NMeF][X1][PhLac])) . Reported pEC50?
Result :: 5.95

Query :: Entry under review: CCCC[C@@H]1NC(=O)[C@H](Cc2cncnc2)NC(=O)[C@H](C)N(C)C(=O)[C@H](Cc2ccccc2)OC(=O)C23CC(CNC(=O)[C@H](Cc4cccc(F)c4)N(C)C(=O)[C@H](CCCC)NC(=O)[C@H](Cc4ccccc4F)NC1=O)(C2)C3 [compound 174] (cyclo([NMeA][Ala(pyrimidin-5-yl)][Nle][Phe(2-F)][Nle][NMePhe(3-F)][X1][PhLac])) . Reported pEC50?
Result :: 6.13

Query :: Entry under review: CCCC[C@@H]1NC(=O)[C@H](Cc2cccnc2)NC(=O)[C@H](CCCF)N(C)C(=O)[C@H](Cc2ccccc2)OC(=O)C23CC(CNC(=O)[C@H](Cc4cccnc4)N(C)C(=O)[C@H](CCCC)NC(=O)[C@H](Cc4ccccc4F)NC1=O)(C2)C3 [compound 239] (cyclo([3Pal][Nle][Phe(2-F)][Nle][NMe3Pal][X1][PhLac][X35])) . Reported pEC50?
Result :: 4.68

Query :: Entry under review: Cc1cccc(C[C@H]2C(=O)NCC34CC(C3)(C4)C(=O)O[C@@H](Cc3ccccc3)C(=O)N(C)[C@@H](C)C(=O)N[C@@H](Cc3cncnc3)C(=O)N[C@@H](CC3CC3)C(=O)N[C@@H](Cc3ccccc3F)C(=O)N[C@@H](CCC(C)(F)F)C(=O)N2C)c1 [compound 275] (cyclo([Ala(cPr)][Phe(2-F)][Nle(5,5-F2)][NMePhe(3-Me)][X1][PhLac][NMeA][Ala(pyrimidin-5-yl)])) . Reported pEC50?
Result :: 6.03
